This collection of values is drawn from patent US11845724B2.

Reported IC50 values for the following compounds.
# measurement.target: recombinant USP30 (amino acids 57-517 of the human sequence) (Homo sapiens (Human), UniProt Q70CQ3)
# Sequence (Q70CQ3 57-517): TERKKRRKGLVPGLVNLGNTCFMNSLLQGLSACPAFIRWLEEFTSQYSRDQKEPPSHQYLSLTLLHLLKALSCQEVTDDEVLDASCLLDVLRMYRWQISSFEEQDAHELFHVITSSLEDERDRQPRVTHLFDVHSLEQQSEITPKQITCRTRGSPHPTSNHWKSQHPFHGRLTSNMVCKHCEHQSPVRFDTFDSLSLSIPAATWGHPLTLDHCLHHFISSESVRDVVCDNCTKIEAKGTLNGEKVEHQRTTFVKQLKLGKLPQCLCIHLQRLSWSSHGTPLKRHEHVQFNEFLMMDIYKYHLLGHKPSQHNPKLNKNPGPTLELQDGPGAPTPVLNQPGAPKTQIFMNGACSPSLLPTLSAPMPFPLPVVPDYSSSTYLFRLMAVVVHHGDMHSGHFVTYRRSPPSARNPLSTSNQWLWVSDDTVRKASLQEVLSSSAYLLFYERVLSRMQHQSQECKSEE
# experiment.summary: In vitro USP30 biochemical assay (Ubiquitin-Rhodamine)
# experimental.context: USP30 IC50 μM (avg), Ubiquitin-Rhodamine substrate 25 nM, 1.5 nM recombinant USP30

# test.smiles, IC50
data = [
    ("COCCNS(=O)(=O)c1ccc(NC(=O)[C@H](Cc2ccccc2)NC(=O)c2ccc(F)cc2)cc1", "0.05 to 1 µM"),
    ("COCCNS(=O)(=O)c1ccc(NC(=O)[C@H](Cc2ccccc2)NC(=O)c2ccc(F)cc2)cn1", "0.05 to 1 µM"),
    ("O=C(N[C@@H](Cc1ccccc1)C(=O)Nc1ccc(S(=O)(=O)NCC(F)(F)F)cc1)c1ccc(F)cc1", "0.05 to 1 µM"),
    ("CCNS(=O)(=O)c1ccc(NC(=O)[C@H](Cc2ccccc2)N(C)C(=O)c2ccc(F)cc2)cc1", "1 to 10 µM"),
    ("O=C(N[C@@H](Cc1ccccc1)C(=O)Nc1ccc(S(=O)(=O)NC2CCC2)cc1)c1ccc(F)cn1", "0.05 to 1 µM"),
    ("CC(C)(CO)NS(=O)(=O)c1ccc(NC(=O)[C@H](Cc2ccccc2)NC(=O)c2ccc(F)cc2)cn1", "0.05 to 1 µM"),
    ("CCNS(=O)(=O)c1ccc(NC(=O)[C@H](Cc2ccccc2)NC(=O)c2ccc(F)cc2)c(OC)c1", "1 to 10 µM"),
]

----------
Reported IC50 values for the following molecules.
# measurement.target: recombinant USP30 (amino acids 57-517 of the human sequence) (Homo sapiens (Human))
# experiment.summary: In vitro USP30 biochemical assay (Ubiquitin-Rhodamine)
# experimental.context: read-out: USP30 IC50 μM (avg), Ubiquitin-Rhodamine substrate 25 nM, 1.5 nM recombinant USP30

# molecule, IC50
measured = [
    ("CC(C)(C)NS(=O)(=O)c1ccc(NC(=O)[C@H](Cc2ccccc2)NC(=O)c2ccc(F)cc2)cc1Cl [Compound I-168]", "< 0.05 µM"),
    ("CC(C)(C)NS(=O)(=O)c1ccc(NC(=O)C2Cc3ncccc3CN2C(=O)c2ccc(F)cc2)cc1 (stereo not drawn) [Compound I-60]", "> 10 µM"),
    ("O=C(N[C@@H](Cc1ccccc1)C(=O)Nc1ccc(S(=O)(=O)NC2CCOCC2)nc1)c1ccc(F)cc1 [Compound I-107]", "< 0.05 µM"),
    ("O=C(N[C@@H](Cc1ccccc1)C(=O)Nc1ccc(S(=O)(=O)NC2CCOCC2)cc1)c1ccc(F)cc1 [Compound I-34]", "< 0.05 µM"),
    ("CN(C)S(=O)(=O)c1cccc2c(NC(=O)[C@H](Cc3ccccc3)NC(=O)c3ccc(F)cc3)cccc12 [Compound I-128]", "> 10 µM"),
    ("CC(C)(C)NS(=O)(=O)c1ccc(NC(=O)[C@H](Cc2ccccc2)NS(=O)(=O)c2ccc(F)cc2)cc1 [Compound I-165]", "> 10 µM"),
]

----------
# measurement.target: UniProt:Q70CQ3
# experiment.summary: Dundee MALDI-TOF mass spectrometry assay (IC50)
# Type: biochemical
# experimental.context: Dundee IC50 μM (avg in vitro MS assay), USP30 25 ng/μl, K48-linked diubiquitin 5.6 μM
Reported IC50 values for the following compounds.
experimental.endpoint: IC50

# compound, result
data = [
    ("CC(C)(C)NC(c1ccc(NC(=O)[C@H](Cc2ccccc2)NC(=O)c2ccc(F)cc2)cc1)C(F)(F)F (stereo partly shown)", "> 10 µM"),
    ("CC(C)(C)NS(=O)(=O)c1ccc(NC(=O)C2(NC(=O)c3ccc(F)cc3)CC2c2ccccc2)cc1 (racemic)", "> 1 µM"),
    ("CC(C)(C)N=S(C)(=O)c1ccc(NC(=O)[C@H](Cc2ccccc2)NC(=O)c2ccc(F)cc2)cc1 (stereo partly shown)", "> 1 µM"),
    ("CC(C)(C)NC(=O)c1ccc(NC(=O)[C@H](Cc2ccccc2)NC(=O)c2ccc(F)cc2)cc1", "> 1 µM"),
    ("CC(C)(C)NS(=O)(=O)c1cccc(NC(=O)[C@H](Cc2ccccc2)NC(=O)c2ccc(F)cc2)c1", "> 1 µM"),
    ("CC(C)(C)NS(=O)(=O)c1ccc(NC(=O)C2Cc3ccccc3CN2C(=O)c2ccc(F)cc2)cc1 (stereo not shown)", "0.05 to 1 µM"),
    ("CC(C)(C)NS(=O)(=O)c1ccc(NC(=O)C2Cc3cccnc3N2C(=O)c2ccc(F)cc2)cc1 (stereo not shown)", "> 1 µM"),
]
